Where do these numbers come from? They come from patent US7790682B1.

Measured mu of individual entries
test: Folding and unfolding kinetics (Chevron plot, stopped-flow CD, GuHCl); assay type: physicochemical; details: slope of ln(ku) vs GuHCl
MEASURED_METRIC: mu

>  <MOLECULE>
SYM6/Δ104-106: SYM6 FGF-1 mutant plus Ala103→Gly/ΔGlu104/ΔLys105/ΔAsn106 (protein, UniProt P05230 16-155, looked up, variant A103G E104* K105* N106*, SYM6 background mutations, SYM6 FGF-1 mutant plus Ala103→Gly/ΔGlu104/ΔLys105/ΔAsn106) Fibroblast growth factor 1: FNLPPGNYKKPKLLYCSNGGHFLRILPDGTVDGTRDRSDQHIQLQLSAESVGEVYIKSTETGQYLAMDTDGLLYGSQTPNEECLFLERLEENHYNTYISKKHGWFVGLKKNGSCKRGPRTHYGQKAILFLPLPVSSD

>  <VALUE>
0.94 M⁻¹

$$$$
>  <MOLECULE>
SYM5/Δ120-122: SYM5 FGF-1 mutant plus Arg119→Gly/ΔGly120/ΔPro121/ΔArg122, SEQ ID NO: 2 (protein, Human FGF-1 mutant SYM5D120-122) FNLPPGNYKKPKLLYCSNGGHFLRILPDGTVDGTRDRSDQHIQFQLSAESVGEVYIKSTETGQYLAMDTDGLVYGSQTPNEECLFLERLEENHYNTYISKKHAEKNWFLGIKKNGSVKGTHYGQKAILFLPLPVSSD

>  <VALUE>
0.80 M⁻¹

$$$$
